biological target: α2B (Homo sapiens)
Sequence (P18089 whole entry): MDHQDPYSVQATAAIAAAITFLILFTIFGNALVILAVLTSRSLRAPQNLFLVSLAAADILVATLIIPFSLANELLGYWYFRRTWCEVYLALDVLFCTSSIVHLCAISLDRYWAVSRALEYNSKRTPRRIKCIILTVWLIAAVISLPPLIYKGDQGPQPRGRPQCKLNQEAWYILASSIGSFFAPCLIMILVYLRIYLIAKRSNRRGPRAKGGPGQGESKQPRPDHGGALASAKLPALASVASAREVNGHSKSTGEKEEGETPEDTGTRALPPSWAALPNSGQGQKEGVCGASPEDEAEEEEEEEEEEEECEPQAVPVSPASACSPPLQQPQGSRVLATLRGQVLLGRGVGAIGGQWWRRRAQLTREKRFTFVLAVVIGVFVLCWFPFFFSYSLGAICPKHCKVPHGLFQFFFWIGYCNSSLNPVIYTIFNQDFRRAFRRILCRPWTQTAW
Value Kind: pKi
The scale used: pKi is minus the common logarithm of the concentration in molar units.

query: Query the reported pKi for α2B (Homo sapiens); item: CCN(C(=O)[C@@H]1C=C2c3cccc4[nH]cc(c34)C[C@H]2N(C)C1)C1CC1 [ECPLA, N-ethyl-N-cyclopropyl lysergamide]
result: 7.21

meta.source: paper PMC6848745
